System: Wolbachia pipientis
PROTOCOL: Anti-Wolbachia Cell-Based Screen
Type: functional
Parameters: scale not given: in the data most compounds retested in dose-response had high values
ASSAY SETUP: 5 µM
Out of some 48,000 compounds screened, about 13,000 (27%) showed an effect of 50% or more. The list shows a part of the results.
TEST READOUT: Percent Effect (%)
Only the number, expressed in %, is required.

As a guide, the following entries are already answered.
- COMPOUND: "Cc1ccc(S(=O)(=O)Nc2cccnc2O)cc1C"
  Percent Effect (%): 0.1699
- COMPOUND: "COCC1CN(CC2CC2)Cc2nn(C)cc21.O=C(O)C(F)(F)F (centres undefined)"
  Percent Effect (%): -11.2
- COMPOUND: "CN(Cc1nc2ccccc2n1C)CC1CCCN1c1cccnn1 (centres undefined)"
  Percent Effect (%): -5.038
- COMPOUND: "c1ccc2c(c1)CC(n1ccnc1-c1cc3n(n1)CCNC3)CO2 (centres undefined)"
  Percent Effect (%): 0.8243
- COMPOUND: "COc1cc2c(cc1CNCc1cccnc1OC)OC(C)C2 (centres undefined)"
  Percent Effect (%): 4.577

Task item: Give the value of Percent Effect reported for the following: COCC1CN(C(=O)CC2=CCCCC2)Cc2nnn(CC3CC3)c21 (centres undefined)
Reply: 25.21

Task item: Answer with reported Percent Effect of Cc1cc(C)n(CCCC(=O)N2CC[C@H]3NCCC[C@]3(CO)C2)n1
Reply: -1.122

Task item: Please report the measured Percent Effect for Cc1cc(CN2CCC(CNC(=O)c3ccc(O)c(Cl)c3)C2)[nH]n1 (centres undefined)
Reply: 12.57

----------
Test system: Wolbachia pipientis
PROTOCOL: Anti-Wolbachia Cell-Based Screen
Type: functional
Design: scale not given: in the data most compounds retested in dose-response had high values
ASSAY SETUP: 5 µM
Among all 48,000 compounds or so, about 13,000 (27%) showed an effect of 50% or more. The list shows a part of the results.
# note: boundary value 20% maps to label 0; Percent Effect below it maps to label 1

# example entries with known answers
- COMPOUND: "CCn1nnc2c1C(COC)CN(Cc1ccsc1)C2.O=C(O)C(F)(F)F (centres undefined)"
  MEASURED ON: "Wolbachia pipientis"
  CLASSIFICATION: "label 1"
- COMPOUND: "Cc1ccc(CN2CCCn3nnc(COCCN(C)C)c3C2)s1.O=C(O)C(F)(F)F.O=C(O)C(F)(F)F"
  MEASURED ON: "Wolbachia pipientis"
  CLASSIFICATION: "label 1"
- COMPOUND: "Cc1nc(N2CCCC2)nc2c1CCN(Cc1ccoc1)CC2.O=C(O)C(F)(F)F"
  MEASURED ON: "Wolbachia pipientis"
  CLASSIFICATION: "label 1"

Task item: Record CC(C)Nc1nc2c(c(N(C)C)n1)CCN(Cc1nccn1C)CC2.O=C(O)C(F)(F)F : is its Percent Effect strictly below 20%?
Reply: label 1

Task item: Identify whether the compound COCC1CN(Cc2ccc(C)o2)Cc2nnn(CC3CC3)c21.O=C(O)C(F)(F)F (centres undefined) records Percent Effect below 20%.
Reply: label 1

Task item: Lab note: confirm whether the reported Percent Effect for this compound is below 20%, equality not counting. compound: CCn1nnc2c1C(COCCN(C)C)CN(Cc1ccco1)C2.O=C(O)C(F)(F)F.O=C(O)C(F)(F)F (centres undefined)
Reply: label 0

Task item: Field: below-cutoff. Rule: recorded Percent Effect strictly less than 20%. Subject: CCn1nnc2c1C(COCCN(C)C)CN(c1nncs1)C2 (centres undefined)
Reply: label 1

Task item: Problem: For the compound CN(C)c1nc(N2CCCC2)nc2c1CCN(C(=O)c1ccco1)CC2.O=C(O)C(F)(F)F.O=C(O)C(F)(F)F , is Percent Effect under 20%?
Reply: label 1

Task item: Criterion: Percent Effect strictly below 20%. Is it met by CCn1nnc2c1C(COCC(=O)N(C)C)CN(Cc1ccoc1)C2 (centres undefined) ?
Reply: label 0

Data origin, for the record: ChEMBL document CHEMBL3988442
